Biological target: Protease (Human immunodeficiency virus 1)
Sequence (Q9YQ12 whole entry): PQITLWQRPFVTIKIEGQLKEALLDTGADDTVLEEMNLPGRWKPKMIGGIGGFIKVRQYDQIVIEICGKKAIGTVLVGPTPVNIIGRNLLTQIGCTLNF
Assay: Inhibition of purified HIV-1 protease using [Arg-Glu(EDANS)-Ser-Gin-Asn-Tyr-Ile-Val-Gin-Lys(dabcyl)-Arg) as fluorogenic substrate at 2 ng/ml by fluorescence assay
Criterion: Inhibition strictly less than 90%. Met: TRUE. Not met: FALSE.

- STRUCTURE: "CC(C)CN(C[C@@H](O)[C@H](Cc1ccccc1)NC(=O)O[C@H]1CO[C@H]2[C@@H]1OC[C@H]2O)S(=O)(=O)c1ccc(N)cc1"
  QUALITATIVE LABEL: "TRUE"
- STRUCTURE: "COc1ccc(S(=O)(=O)N(CC(C)C)C[C@@H](O)[C@H](Cc2ccccc2)NC(=O)O[C@H]2CO[C@H]3[C@@H]2OC[C@H]3OC)cc1"
  QUALITATIVE LABEL: "FALSE"
- STRUCTURE: "CO[C@@H]1CO[C@H]2[C@@H]1OC[C@@H]2OC(=O)N[C@@H](Cc1ccccc1)[C@H](O)CN(CC(C)C)S(=O)(=O)c1ccc(N)cc1"
  QUALITATIVE LABEL: "FALSE"
- STRUCTURE: "COc1ccc(S(=O)(=O)N(CC(C)C)C[C@@H](O)[C@H](Cc2ccccc2)NC(=O)O[C@H]2CO[C@H]3[C@@H]2OC[C@H]3O[N+](=O)[O-])cc1"
  QUALITATIVE LABEL: "FALSE"
- STRUCTURE: "COc1ccc(S(=O)(=O)N(CC(C)C)C[C@@H](O)[C@H](Cc2ccccc2)NC(=O)O[C@H]2CO[C@H]3[C@@H]2OC[C@H]3O)cc1"
  QUALITATIVE LABEL: "FALSE"
- STRUCTURE: "CC(C)CN(C[C@@H](O)[C@H](Cc1ccccc1)NC(=O)O[C@H]1CO[C@H]2[C@@H]1OC[C@H]2O[N+](=O)[O-])S(=O)(=O)c1ccc(N)cc1"
  QUALITATIVE LABEL: "FALSE"
